Overview of recorded half-life at 1 h, 1 µM for various molecules
# Assay Info: in vitro
# Conditions Used: mouse, liver microsomes
# Description: Half life in mouse liver microsomes at 1 uM up to 60 mins in presence of NADPH
Provide the reading as a plain figure in min.

| Smiles Representation | Unit | half-life at 1 h, 1 µM |
| --- | --- | --- |
| N=C(N)NC(=O)c1nc(-c2cc3ccccc3s2)c(N2CCCCCC2)nc1N | min | 21 |
| N=C(N)NC(=O)c1nc(-c2ccc(C(F)(F)F)cc2)c(N2CCCCCC2)nc1N | min | 26 |
| N=C(N)NC(=O)c1nc(-c2cncnc2)c(N2CCCCCC2)nc1N | min | 100 |
| N=C(N)NC(=O)c1nc(-c2cc3ccccc3s2)c(N)nc1N | min | 7 |
| N=C(N)NC(=O)c1nc(-c2cc3ccccc3o2)c(N2CCCCCC2)nc1N | min | 24 |

Next item in the queue.
[Q] Sample `N=C(N)NC(=O)c1nc(-c2ccc(C(F)(F)F)cc2)c(N)nc1N` — what was its half-life at 1 h, 1 µM?
[A] 153

###

# Conditions Used: human, microsomes, 1 h, 1 µM
Overview of recorded CL free for various compounds
Provide the reading as a plain figure in µL/min/mg.

| Smiles Representation | Unit | CL free |
| --- | --- | --- |
| N=C(N)NC(=O)c1nc(-c2cc3ccccc3o2)c(N)nc1N | µL/min/mg | 84 |

[Q] Sample `N=C(N)NC(=O)c1nc(-c2ccco2)c(N2CCCCCC2)nc1N` — what was its CL free?
[A] 687

[Q] `N=C(N)NC(=O)c1nc(-c2ccco2)c(N)nc1N` , same question.
[A] 55
